Reported pIC50 values, Stromelysin-1 (Homo sapiens).
Note: pIC50 values are expressed as the negative base-10 logarithm of concentration in M.

Prompt line: Quick one: pIC50 of CNC(=O)[C@@H](NC(=O)[C@H](CCCCCCCCCCCCCCO)CC(=O)NO)C(C)(C)C ?
Response line: 7.30

Prompt line: Quick check: pIC50 of CCCCCCCCCCCCC[C@H](CC(=O)NO)C(=O)N[C@H](C(=O)NC)C(C)(C)C ?
Response line: 7.22

Prompt line: Recorded pIC50 of CCCCCCCCCCCCCCCC[C@H](CC(=O)NO)C(=O)N[C@H](C(=O)NC)C(C)(C)C , please.
Response line: 7.05

Prompt line: Value lookup for pIC50; key = CCCCCCCCCCCCCC[C@H](CC(=O)NO)C(=O)N[C@H](C(=O)NC)C(C)(C)C
Response line: 7.15

Prompt line: Recorded pIC50 for CCCCCCCCCCCCCCCC[C@H](CC(=O)O)C(=O)N[C@H](C(=O)NC)C(C)(C)C , please?
Response line: 5.00

Prompt line: Look at this compound and give its reported pIC50. CCCCCCCC[C@H](CC(=O)NO)C(=O)N[C@H](C(=O)NC)C(C)(C)C
Response line: 7.00

----------
# Lookup of reported IC50 keyed by entry
target: Stromelysin-1 (Homo sapiens, UniProt P08254)
Sequence (P08254 whole entry): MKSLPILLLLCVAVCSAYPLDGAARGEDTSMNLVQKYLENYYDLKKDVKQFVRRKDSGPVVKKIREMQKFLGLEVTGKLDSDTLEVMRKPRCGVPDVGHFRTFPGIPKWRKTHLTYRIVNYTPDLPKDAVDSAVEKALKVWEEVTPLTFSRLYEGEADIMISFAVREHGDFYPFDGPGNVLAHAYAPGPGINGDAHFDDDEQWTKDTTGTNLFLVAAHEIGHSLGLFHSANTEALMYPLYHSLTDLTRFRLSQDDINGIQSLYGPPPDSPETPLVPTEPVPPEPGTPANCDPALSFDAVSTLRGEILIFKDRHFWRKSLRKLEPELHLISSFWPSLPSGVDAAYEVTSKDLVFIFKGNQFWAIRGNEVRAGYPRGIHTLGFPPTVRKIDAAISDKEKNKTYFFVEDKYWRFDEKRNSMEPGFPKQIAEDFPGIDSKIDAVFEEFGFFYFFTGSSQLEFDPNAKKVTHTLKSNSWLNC
Unit nM implied. Number only.

Here are 2 molecules together with their reported answers.
[[record]]
compound_structure_string = "CCCCCC[C@H](CC(=O)NO)C(=O)N[C@@H](Cc1ccccc1)C(=O)NC"
measured_number = 80

[[record]]
compound_structure_string = "CCCCCCCCC[C@H](CC(=O)NO)C(=O)N[C@@H](Cc1ccccc1)C(=O)NC"
measured_number = 30


Continue with the molecule presented below.
Prompt line: Value wanted: IC50 (Stromelysin-1 (Homo sapiens, UniProt P08254)) of entry CCCCCCCC[C@H](CC(=O)O)C(=O)N[C@H](C(=O)NC)C(C)(C)C
Response line: 30000
